Catalogue of compounds with associated melting point

- compound: "COc1ccc(C2CC(c3ccc(OCc4ccccc4)cc3)=NN2)cc1OC (centres unmarked) [Compound 10c]"
  melting point: "128 to 130 °C"
- compound: "c1ccc(COc2ccc(-c3nnc(SC4CCCC4)o3)cc2)cc1"
  melting point: "91 to 93 °C"
- compound: "Clc1ccc(CSc2nnc(-c3ccc(OCc4ccccc4)cc3)o2)cc1"
  melting point: "125 to 127 °C"
- compound: "Cc1ccc(CSc2nnc(-c3ccc(OCc4ccccc4)cc3)o2)cc1"
  melting point: "130 to 132 °C"
- compound: "c1ccc(COc2ccc(-c3nnc(SC4CCCCCC4)o3)cc2)cc1"
  melting point: "83 to 85 °C"
- compound: "CCOC(=O)CSc1nnc(-c2ccc(OCc3ccccc3)cc2)o1"
  melting point: "100 to 102 °C"
- compound: "CC(=O)N1N=C(c2ccc(OCc3ccccc3)cc2)CC1c1cccc([N+](=O)[O-])c1 (centres unmarked)"
  melting point: "127 to 129 °C"
- compound: "CC(=O)N1N=C(c2ccc(OCc3ccccc3)cc2)CC1c1cccc(Br)c1 (centres unmarked)"
  melting point: "93 to 95 °C"
- compound: "Brc1cccc(C2CC(c3ccc(OCc4ccccc4)cc3)=NN2)c1 (centres unmarked) [Compound 10a]"
  melting point: "86 to 88 °C"
- compound: "O=[N+]([O-])c1cccc(C2CC(c3ccc(OCc4ccccc4)cc3)=NN2)c1 (centres unmarked) [Compound 10b]"
  melting point: "108 to 110 °C"
- compound: "COc1ccc(C2CC(c3ccc(OCc4ccccc4)cc3)=NN2C(C)=O)cc1OC (centres unmarked)"
  melting point: "85 to 87 °C"

----------
- measured.on: HER2 (Homo sapiens)
- Sequence (P04626 23-1255): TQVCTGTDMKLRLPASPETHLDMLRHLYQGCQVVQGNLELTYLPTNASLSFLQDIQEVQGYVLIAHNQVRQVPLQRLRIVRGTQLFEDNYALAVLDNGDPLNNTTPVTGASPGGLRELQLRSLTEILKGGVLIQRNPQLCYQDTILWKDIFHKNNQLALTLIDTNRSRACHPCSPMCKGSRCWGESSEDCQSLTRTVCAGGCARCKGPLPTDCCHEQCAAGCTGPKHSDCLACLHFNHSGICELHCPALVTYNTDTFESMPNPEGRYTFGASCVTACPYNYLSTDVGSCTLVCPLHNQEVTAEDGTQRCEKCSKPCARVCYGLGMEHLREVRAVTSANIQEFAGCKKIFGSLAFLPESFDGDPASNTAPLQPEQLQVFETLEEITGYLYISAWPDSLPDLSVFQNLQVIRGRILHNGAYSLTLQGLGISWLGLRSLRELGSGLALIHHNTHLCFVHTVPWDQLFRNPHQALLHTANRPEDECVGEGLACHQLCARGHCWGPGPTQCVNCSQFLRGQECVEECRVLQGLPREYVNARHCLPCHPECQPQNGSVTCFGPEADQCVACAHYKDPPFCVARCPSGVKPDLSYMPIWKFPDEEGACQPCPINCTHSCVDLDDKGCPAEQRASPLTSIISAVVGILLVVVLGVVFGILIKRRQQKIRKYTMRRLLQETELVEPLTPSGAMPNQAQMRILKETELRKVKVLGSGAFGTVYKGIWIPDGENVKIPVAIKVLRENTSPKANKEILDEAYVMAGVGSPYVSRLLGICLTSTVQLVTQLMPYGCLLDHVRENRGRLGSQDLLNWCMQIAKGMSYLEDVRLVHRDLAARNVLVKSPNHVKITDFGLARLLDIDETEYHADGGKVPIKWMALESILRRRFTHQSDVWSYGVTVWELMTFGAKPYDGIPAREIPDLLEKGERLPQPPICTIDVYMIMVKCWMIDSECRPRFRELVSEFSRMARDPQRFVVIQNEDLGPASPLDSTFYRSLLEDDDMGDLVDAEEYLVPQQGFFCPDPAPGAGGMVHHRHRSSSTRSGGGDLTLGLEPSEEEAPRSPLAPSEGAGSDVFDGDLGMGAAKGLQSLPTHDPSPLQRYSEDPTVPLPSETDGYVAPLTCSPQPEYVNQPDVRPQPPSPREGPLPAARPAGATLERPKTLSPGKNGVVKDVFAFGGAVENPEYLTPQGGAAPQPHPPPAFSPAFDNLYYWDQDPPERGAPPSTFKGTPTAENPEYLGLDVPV
pIC50: −log10 of the molar value.

- mol.smiles: "c1ccc(COc2ccc(-c3nnc(SCc4ccccc4)o3)cc2)cc1"
  pIC50: 6.14

// provenance: paper PMC10915170
